- ASSAY SYSTEM: human P2X4 (Homo sapiens)
- Sequence (Q99571 whole entry): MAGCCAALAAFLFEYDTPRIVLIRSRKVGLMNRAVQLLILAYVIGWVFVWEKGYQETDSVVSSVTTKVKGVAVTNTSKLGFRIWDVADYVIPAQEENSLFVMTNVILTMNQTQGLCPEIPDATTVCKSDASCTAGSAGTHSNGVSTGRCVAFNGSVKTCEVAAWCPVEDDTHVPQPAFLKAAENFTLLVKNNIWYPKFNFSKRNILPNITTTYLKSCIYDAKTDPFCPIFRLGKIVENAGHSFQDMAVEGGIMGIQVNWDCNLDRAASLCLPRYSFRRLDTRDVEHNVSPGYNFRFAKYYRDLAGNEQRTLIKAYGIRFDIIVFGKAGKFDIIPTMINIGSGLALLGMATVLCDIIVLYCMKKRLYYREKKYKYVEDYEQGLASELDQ
- ASSAY SUMMARY: Human P2X4 HEK Cell FLIPR Assay
- Assay type: cell-based
- PROTOCOL CONDITIONS: HEK293, HEK293 cells, agonist Bz-ATP at EC80; percentage of maximal inhibition; read-out: Human P2X4 HEK Cells (FLIPR Assay) avg Efficacy [%]
In this scheme, each record receives a class according to its Emax; the ranges are low class: < 80%; middle class: ≥ 80% and < 90%; high class: ≥ 90%

# SMILES INPUT, LABEL
measured = [
    ("NS(=O)(=O)c1cc(NC(=O)Cc2ccc(F)c(F)c2)ccc1-n1cc(Cl)cn1", "low class"),
    ("NS(=O)(=O)c1cc(NC(=O)Cc2ccccc2Cl)ccc1-c1nnc(C(F)(F)F)o1", "high class"),
    ("Cc1nc(-c2ccc(NC(=O)Cc3ccccc3Cl)cc2S(N)(=O)=O)cs1", "low class"),
    ("NS(=O)(=O)c1cc(NC(=O)Cc2ccc(C(F)(F)F)cc2Cl)c(C(F)(F)F)cc1-n1cc(F)cn1", "middle class"),
    ("Cc1ccccc1CC(=O)Nc1ccc(-n2cc(F)cn2)c(S(N)(=O)=O)c1", "middle class"),
    ("COc1ccc(Cl)c(CC(=O)Nc2ccc(-n3cc(C(F)(F)F)cn3)c(S(N)(=O)=O)c2)c1", "high class"),
    ("NS(=O)(=O)c1cc(NC(=O)Cc2ccccc2Cl)ccc1-n1cc(NC(=O)CC(F)(F)F)cn1", "middle class"),
    ("NS(=O)(=O)c1cc(NC(=O)Cc2ccccc2Cl)ccc1-c1cccc(Cl)c1", "high class"),
    ("NS(=O)(=O)c1cc(NC(=O)Cc2ccccc2Cl)ccc1-n1ccnc1", "middle class"),
    ("CC(C)OCCn1cc(-c2ccc(NC(=O)Cc3ccccc3Cl)cc2S(N)(=O)=O)cn1", "middle class"),
    ("NS(=O)(=O)c1cc(NC(=O)Cc2ccccc2Cl)ccc1-c1cccc(C(F)(F)F)n1", "low class"),
    ("COc1ccc(CC(=O)Nc2ccc(-n3cc(C#N)cn3)c(S(N)(=O)=O)c2)cc1", "low class"),
    ("NS(=O)(=O)c1cc(NC(=O)Cc2ccncc2Cl)ccc1-n1cnc(C(F)(F)F)n1", "low class"),
    ("NS(=O)(=O)c1cc(NC(=O)Cc2ccccc2Cl)ccc1-c1ncc(N2CCOCC2)s1", "middle class"),
]
